I'd be grateful if you could share measured protein stability index for these entries.
assay: protein stability index of a GFP-peptide fusion (yeast GPS) (PSI 1-4); higher = more stable; sorted into four equal gates, so the index is relative within each strain; settings: doa10∆
Answers are plain numbers.

QPVNPKPFLKGLVNHRV [SMX3] | 3.07
KLASTLEKISSSNKDLE [SMC4] | 3.09
MEYHISNTDETKGENYQ [FAS2] | 3.03
INSPMPQQAQMQQAQFQ [SNF2] | 2.98
TESPLKTVDSSIQPIES [SSN2] | 2.99
SEISSLKGKINNEMKSL [SMC1] | 3.09
LDSTGFDSTAFNATVDE [MED2] | 3.08
EIPTQIYRTTRQDGSYT [ARP9] | 2.94

Consider the following items and state reported protein stability index for each.
1. IGKDTFVTRKSRKRAKK [PRP8]
2. NACAKYGRDDMENIKKS [ISW2]

# output
[3.01, 2.91]

###

What protein stability index was measured for each of the following?
experiment: protein stability index of a GFP-peptide fusion (yeast GPS) (PSI 1-4); higher = more stable; sorted into four equal gates, so the index is relative within each strain; conditions: ubr1∆
One number for each entry.

Solved cases (2 shown):
LMVFNDDTKNQDSMSKG [YGR119C/NUP57] | 3.05
SPIFEVLSDDAKKLSSF [ARP9] | 3

# input Retrieve protein stability index measured for QLENADTGTLDTKSVVG [RPN2] and print it.
# output 3.04

###

assay: protein stability index of a GFP-peptide fusion (yeast GPS) (PSI 1-4); higher = more stable; sorted into four equal gates, so the index is relative within each strain; conditions: pdr5∆
OBSERVABLE: protein stability index
Answers are plain numbers.

List reported protein stability index for each of these sequences:
1. EEKEEEAAEESDDDMGF [RPP1B]
2. YENKQLYFPDDYPFTQL [POP1]
3. AALIASKVYYNLGEYES [RPN2]

# output
3.23
2.99
1.6

Batch of 8 sequences: report protein stability index for each.
1. RRRKGISTGGFMSNDGP [SNU114]
2. TYVEELFPIVKKHGKTD [YJL039C/NUP192]
3. NGNDESSEYETINISLS [NUT1]
4. PFNQGSKQDVEALIEFI [FAS2]
5. NPRRLEIKDGRSLFLRN [YMR153W/NUP53]
6. TTIFVKSTTPYVSALKR [POP7]
7. FKSTMLQVSEKDLFELE [ARP7]
8. LVTKILPLKKNEIIGDR [YCG1]

# output
1: 1.47; 2: 3.44; 3: 3.32; 4: 3.15; 5: 2.9; 6: 2.27; 7: 2.49; 8: 2.9

Please report protein stability index for every entry that follows.
1. GALDVEGLCIVAGSKCW [RRP45]
2. GSAINHHRIFDSSAHFK [YMR129W/POM152]
3. TIVNDSNYDWLFQLLNA [RPN9]
4. DNVQANDPAREKFSSFI [SNF12]
5. GVDLKLKYSKRRSLKKQ [CSN12]
6. PSFTFGGSTTNNTTTTS [YOR098C/NUP1]
7. MHSYFIFKDLVTVFLFM [COB]

# output
2.96
2.46
2.58
3.01
2.75
3.19
1.32

For each of the sequences below, note its protein stability index.
1. TNTSKQFQKARNNVMLL [SRB8]
2. GMPNMPGMPNMPGMPNM [SRP54]
3. KDWTDTFVYILEKLIFD [SRB8]
4. DGLGNVVDFTSLPEELK [YMR129W/POM152]
5. RKRCKGTVGNSHKTTKE [RPL11A]
6. QWIKFLLHTLYLRPASA [SSN8]

# output
[3, 3.21, 2.72, 3.47, 3, 1.59]

# input Read off the recorded protein stability index for MQANKLDSQETPSTEES [SWI3]
# output 2.35
